Where do these numbers come from? They come from patent US20170174769A1.

target: M. fascicularis KLB and human FGFR1c co-expressed on HEK293/MfKLB/hFGFR1c/SRE-Luc cells (M. fascicularis; human, UniProt A0A2K5WB58 1-1044); test: cell-based or functional assay
Sequence (chain, as listed by the source, chain 1 of 2): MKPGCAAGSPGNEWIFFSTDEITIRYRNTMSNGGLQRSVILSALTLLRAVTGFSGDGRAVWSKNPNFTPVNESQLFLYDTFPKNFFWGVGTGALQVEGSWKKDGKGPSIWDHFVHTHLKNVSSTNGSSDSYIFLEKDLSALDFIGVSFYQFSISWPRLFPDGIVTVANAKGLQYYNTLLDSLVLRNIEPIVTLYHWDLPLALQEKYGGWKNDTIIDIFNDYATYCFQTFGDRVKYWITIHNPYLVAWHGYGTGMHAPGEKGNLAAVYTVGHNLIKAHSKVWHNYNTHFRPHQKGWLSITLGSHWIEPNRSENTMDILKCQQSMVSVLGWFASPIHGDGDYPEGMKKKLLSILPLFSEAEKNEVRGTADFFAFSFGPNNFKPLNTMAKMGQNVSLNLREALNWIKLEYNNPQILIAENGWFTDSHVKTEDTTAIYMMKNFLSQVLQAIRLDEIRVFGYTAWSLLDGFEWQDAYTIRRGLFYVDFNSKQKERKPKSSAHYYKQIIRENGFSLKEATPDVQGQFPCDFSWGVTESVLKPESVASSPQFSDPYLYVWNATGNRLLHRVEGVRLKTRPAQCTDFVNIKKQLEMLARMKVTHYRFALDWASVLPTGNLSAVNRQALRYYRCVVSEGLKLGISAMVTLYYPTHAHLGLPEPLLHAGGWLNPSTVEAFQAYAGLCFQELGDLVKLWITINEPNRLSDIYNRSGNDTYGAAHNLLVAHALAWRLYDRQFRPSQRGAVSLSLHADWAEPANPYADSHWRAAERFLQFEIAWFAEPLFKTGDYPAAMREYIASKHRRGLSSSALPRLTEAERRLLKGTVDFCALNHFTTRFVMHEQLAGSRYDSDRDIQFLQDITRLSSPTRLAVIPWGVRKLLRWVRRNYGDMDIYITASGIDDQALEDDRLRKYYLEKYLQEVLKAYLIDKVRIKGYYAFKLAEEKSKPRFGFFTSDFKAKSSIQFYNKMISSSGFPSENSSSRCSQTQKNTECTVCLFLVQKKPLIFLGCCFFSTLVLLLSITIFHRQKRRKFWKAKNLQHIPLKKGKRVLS
Sequence (chain, as listed by the source, chain 2 of 2): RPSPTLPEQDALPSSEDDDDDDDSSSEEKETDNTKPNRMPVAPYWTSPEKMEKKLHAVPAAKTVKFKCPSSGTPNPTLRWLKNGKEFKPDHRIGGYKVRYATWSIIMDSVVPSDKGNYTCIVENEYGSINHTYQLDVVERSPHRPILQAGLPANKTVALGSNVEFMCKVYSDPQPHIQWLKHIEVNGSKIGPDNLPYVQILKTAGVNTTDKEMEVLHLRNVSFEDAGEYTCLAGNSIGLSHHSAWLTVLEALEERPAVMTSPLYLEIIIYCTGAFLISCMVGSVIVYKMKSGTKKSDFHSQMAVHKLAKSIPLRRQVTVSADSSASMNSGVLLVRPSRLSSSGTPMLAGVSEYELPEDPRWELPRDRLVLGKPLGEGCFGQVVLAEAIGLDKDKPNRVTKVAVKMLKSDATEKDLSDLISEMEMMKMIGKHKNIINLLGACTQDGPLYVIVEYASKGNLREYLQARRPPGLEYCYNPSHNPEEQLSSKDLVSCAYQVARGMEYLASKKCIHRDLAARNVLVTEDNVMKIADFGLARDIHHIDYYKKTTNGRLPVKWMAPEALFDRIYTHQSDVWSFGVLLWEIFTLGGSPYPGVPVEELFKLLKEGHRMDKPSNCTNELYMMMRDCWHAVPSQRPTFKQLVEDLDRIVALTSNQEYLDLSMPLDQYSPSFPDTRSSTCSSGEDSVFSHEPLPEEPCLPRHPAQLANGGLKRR
reportedProperty: IC50, inhibition of 10 nM mfFGF21 (nM)
I only need the number, in nM, no unit after it.

| binder | unitAbbrev | assayValue |
| --- | --- | --- |
| H4H8878P (antibody, V domains shown, human IgG4 Fc (H4H prefix)) VH: QVQLVESGGGVVQPGRSLRLSCAASGFTLNTYGMHWIRQTPGKGLEWVSLISYDETKEYYVDSVKGRFTISRDNSKNTLYLQMNSVRVEDTAVYYCAKPLTGSTDYYYGLDVWGQGTTVTVSS VL: DIQMTQSPSYVSASVGDRVIITCRASQDISSWLAWYQQKPGKAPKLLIYVTSSLESGVPSRFSGSGSGTDFTLTISGLQPEDFATYYCQQVKSFPPTFGPGTKVDIK | nM | 0.12 |
| H4H8881P (antibody, V domains shown, human IgG4 Fc (H4H prefix)) VH: QVQLVQSGAEVKKPGASVKVSCKASGYTFTSYVIHWVRQAPGQRLEWMGWSNAANGDTKYSQEFQDRVTFTRDTSASTAYMELSSLRSEDMAVYYCARWNWNYGAFDIWGQGTMVTVSS VL: DIQMTQSPSSLSASVGDRVTITCQASQDINNYLHWYQQKSGKAPNLLIYDASILETGVPSRFSGSGSGTDFTFTISSLQPEDIATYYCQQYDNLPYTFGQGTKLEIK | nM | 0.046 |
| H2aM8109N (antibody, V domains shown, mouse IgG2 Fc (H2aM prefix)) VH: QVQVVESGGGVVQPGRSLRLSCAASGFTFSSYGLHWVRQAPGKGLEWVAVIWHDGSHKYYADSVKGRFTISRDNSKNTLYLQMNSLRAEDTAVYYCARDGIPVAEDYYFYGMDVWGQGTTVTVSS VL: DIQMTQSPSSLSASVGDRVTITCRASQGIRNDLGWYQQKPGKAPKRLIYAASSLQSGVPSRFSGSGSGTEFTLTISSLQPEDFAIYYCLQHNSLTFGGGTKVEIK | nM | 0.19 |
| H4H8856P (antibody, V domains shown, human IgG4 Fc (H4H prefix)) VH: QVQLQESGPGLVKPSETLSLTCTVSGGSISSYYWSWIRQPPGKGLEWIAYIYYSGITKYNPSLKSRVTISADTSKNQFSLKLSSVTAADTAVYYCARHGIFGVMEYFQRWGQGTLVTVSS VL: DIQMTQSPSSLSASIGDRVTITCQASQDISNFLNWYQQKPGKAPTLLIYDVSNMETGVPSRFSGSGYGTDFTLTISSLKPEDIATYYCQQYDNIPLTFGGGTKVEIK | nM | 0.79 |
| H4H8852P (antibody, V domains shown, human IgG4 Fc (H4H prefix)) VH: QVQLQESGPGLVKPSETLSLTCTVSGGSISSYYWSWIRQPPGKGLEWIGYIYSSGIIKYNPSLKSRVTISADTSKNQFSLKLSSVTAADTAVYYCARHGIFGVMEYFQRWGQGTLVTVSS VL: DIQMTQSPSSLSASIGDRVTITCQASQDIGNFLNWYQQKPGKAPTLLIYDASNMETGVPSRFSGSGSGTYFTFTISSLQPEDVATYYCQQYDNLPLTFGGGTKVEIK | nM | 0.47 |

Now for the binder whose IC50, inhibition of 10 nM mfFGF21 we want.
Form: binder = H2aM8093N (antibody, V domains shown, mouse IgG2 Fc (H2aM prefix)) VH: QVQLVQSGAEVKRPGSSVKVSCKASGDTFSTYAISWVRQAPGQGLEWMGGIIPVFGTTNYAQKFQDRVTITTDESTRTAYMELSSLRSEDTAVYYCAGIAGPDYWGQGTLVTVSS VL: DIQMTQSPSSLSASVGDRVTITCRASQGIRNYLAWFQQKPGKAPKSLIYLATSLQSGVPSKFSGSGSGTDFTLTISSLQPEDFATYYCQQYYSYPWTFGQGTKVEIK ; IC50, inhibition of 10 nM mfFGF21 = 0.026
